Experiment: qHTS RealTime-Glo MT Cell Viability Assay in HEK293 cells - 40 hour (AID 1224874); note: % is set by controls: 0 for no effect and ±100 for the full control effect; nearly all actives have a fitted effect of over 50% in size
Conditions: RealTime-Glo luminescence; hits give low values
Inconclusive results are not listed.
readout.label: max response (%)
Express the result in % but write the number alone.

Example entries and their recorded answers appear below.
molecule=CCN1CCN(c2cc(-c3ccc(F)cc3)c3c(n2)CCCCCC3)CC1 result_number=-18.7
molecule=C[Si](C)O[Si](C)C result_number=-8.35
molecule=CCCCCCCC(=O)OCC result_number=-3.83
molecule="CC1=CP(=O)(c2ccccc2)CC1 (centres undefined)" result_number=9.74
molecule=CCc1cccc(CC)c1N(COC)C(=O)CS(=O)(=O)O result_number=20.8
molecule=Cc1oc(-c2ccccc2)nc1CCOc1ccc(C[C@H](Nc2ccccc2C(=O)c2ccccc2)C(=O)O)cc1 result_number=0.495
molecule=Brc1ccccn1 result_number=-0.513
molecule=O=S(=O)(O)c1cc(S(=O)(=O)O)c2ccc3c(S(=O)(=O)O)cc(S(=O)(=O)O)c4ccc1c2c43 result_number=2.05

Summary for this molecule, O=C(O)CCCCCCC(=O)O : max response is 12.4

Form field max response, entry Clc1nc2ccccc2s1 : -10.6

Reported max response for C(=C/c1ccccc1)/c1ccccc1 was -13.3

Per the records, this molecule ( CCOCOCC ) has max response equal to 5.75

###

Molecular target: Cytochrome P450 1A2 (Homo sapiens)
Experiment: Cytochrome P450 Family 1 Subfamily A Member 2 (CYP1A2) small molecule antagonists: luciferase reporter qHTS assay (AID 1671199); note: nearly all actives have a fitted effect of over 50% in size
Details: P450-Glo CYP1A2 enzyme, luciferin luminescence, 1 h; series mostly up to 115 µM
From the text: National Center for Advancing Translational Sciences [NCATS] U.S. Environmental Protection Agency [EPA] National Institutes of Environmental Health Sciences [NIEHS] National Toxicology Program [NTP] U.S. Food and Drug Administration [FDA] Cytochrome P450 (CYP) enzymes are membrane-bound hemeproteins that play a key role in metabolism of drugs and xenobiotics. […] The luciferin products formed are detected with a luciferin detection reagent, and the amount of light produced is proportional to CYP activity. […]
Records with an inconclusive call do not appear. Activity calls are given as the source filed them. Calls come from the whole dose curve; as a rule, active = well fitted inhibition curve with a large enough effect in the repeat runs; inconclusive = weak or mixed curves; inactive = no such curve, though single readings can be large or run the other way.
Could you please pick one outcome from this set? class 1 for active, class 0 for inactive

See these solved cases before continuing.
molecule=Cc1cc2c(C(C)C)c(O)c(O)c(C=O)c2c(O)c1-c1c(C)cc2c(C(C)C)c(O)c(O)c(C=O)c2c1O experimental_system="Cytochrome P450 1A2 (Homo sapiens)" group_label="class 0"
molecule=O=C(c1ccccc1)c1cc(Cl)ccc1O experimental_system="Cytochrome P450 1A2 (Homo sapiens)" group_label="class 1"

q: What classification did CCOCOCC end up with in this test?
a: class 0

q: Hey, what did the test say about O=C(Nc1ccc(Cl)c(Cl)c1)c1cc(Cl)cc(Cl)c1O ?
a: class 1

q: Just curious, what result did CCc1cccc(C)c1 get here?
a: class 0

q: Can you look up the reported call for CCO[Si](CCCSSSSCCC[Si](OCC)(OCC)OCC)(OCC)OCC for me?
a: class 1

q: What call does the record list for CCN(CC)CCOc1ccc(C(O)(Cc2ccc(Cl)cc2)c2ccc(C)cc2)cc1 (centres undefined) ?
a: class 0

###

Assay: qHTS assay for small molecule agonists of the p53 signaling pathway (AID 651631); note: nearly all actives have a fitted effect of over 15% in size; note: potency is the fitted concentration of half-maximal effect
Conditions: HCT-116 p53RE-bla reporter, beta-lactamase FRET ratio, 16 h; series mostly up to 73.3 µM
Results filed as inconclusive are left out. The source made the active and inactive calls. The call rests on the fitted dose curve.
readout.label: Potency

# annotated cases, reported Potency shown
molecule=O=C(c1ccccc1)c1cc(Cl)ccc1O result=inactive
molecule=O=S(=O)(O)CCCN1CCOCC1 result=inactive
molecule=COc1cc(C=C2CCC/C(=C\c3ccc(O)c(OC)c3)C2=O)ccc1O result="11.9 µM (active)"
molecule="CC(COC(=O)c1ccccc1)OC(=O)c1ccccc1 (stereo not given)" result=inactive
molecule=CC(C)c1cccc(C(C)C)c1N1C(=O)c2ccc(O)cc2C1=O result="1.54 µM (active)"

Just so you know, measured Potency for S=P(N1CC1)(N1CC1)N1CC1 came out at 14.4 µM (active)

The recorded Potency for CC(C)N=C(N)/N=C(\N)Nc1ccc(Cl)cc1 is inactive

So, CCc1cccc(C)c1 ? Its Potency was inactive

The recorded Potency for CCCCCCOc1ccc(O)cc1 is 24.3 µM (active)

// recorded Potency for CN(C)CCCN1c2ccccc2Sc2ccc(C(F)(F)F)cc21 : 11.9 µM (active)
